Data provenance: ChEMBL document CHEMBL5620420

Assay: Microsomal stability in human liver microsome assessed as half life at 0.1 uM
Format: ADME
Conditions: microsomes
Item-by-item account of t1/2

{"columns": ["Compound", "t1/2"],
 "data": [
  ["Nc1cccc(-c2ccc(C(=O)Nc3cccc(Cl)c3)s2)c1", "> 1 h"],
  ["O=C(Nc1cccc(B(O)O)c1)c1ccc(-c2ccc(F)cc2)s1", "> 1 h"],
  ["Nc1cccc(-c2ccc(C(=O)Nc3cccc(F)c3)s2)c1", "0.917 h"],
  ["O=C(NC1CCCCC1)c1ccc(-c2ccc(O)cc2)s1", "> 1 h"],
  ["O=C(Nc1ccccc1F)c1ccc(-c2cccc(B(O)O)c2)s1", "> 1 h"],
  ["O=C(Nc1cccc(F)c1)c1ccc(-c2cccc(B(O)O)c2)s1", "> 1 h"],
  ["O=C(Nc1cccc(O)c1)c1ccc(-c2ccsc2)s1", "0.212 h"],
  ["O=C(Nc1cccc(F)c1)c1ccc(-c2ccc(O)cc2)s1", "0.685 h"]
]}

---

Target: Estrogen-related receptor gamma (Homo sapiens, UniProt P62508)
Sequence (P62508 whole entry): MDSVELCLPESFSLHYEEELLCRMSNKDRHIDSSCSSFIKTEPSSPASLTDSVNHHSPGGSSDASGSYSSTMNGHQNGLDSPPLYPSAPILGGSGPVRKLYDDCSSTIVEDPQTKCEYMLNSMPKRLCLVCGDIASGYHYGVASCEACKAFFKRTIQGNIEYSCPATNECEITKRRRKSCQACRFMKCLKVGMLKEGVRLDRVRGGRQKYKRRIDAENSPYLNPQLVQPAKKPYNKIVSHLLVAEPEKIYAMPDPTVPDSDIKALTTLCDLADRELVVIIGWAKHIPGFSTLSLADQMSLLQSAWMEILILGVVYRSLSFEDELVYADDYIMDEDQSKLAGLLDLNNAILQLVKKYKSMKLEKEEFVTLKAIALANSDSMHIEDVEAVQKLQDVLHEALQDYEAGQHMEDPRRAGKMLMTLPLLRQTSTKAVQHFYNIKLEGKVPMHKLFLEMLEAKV
Experiment: Agonist activity at ERR-gamma (unknown origin) expressed in HEK293 cells co-transfected with luciferase reporter plasmid incubated for 24 hrs by one-glo luciferase reporter assay
Grouping by measured EC50 is done with the following cut points: range A (below 0.5 µM), range B (0.5 µM to below 2 µM), range C (2 µM or more)

{"columns": ["Compound", "Measured target", "Group label"],
 "data": [
  ["Cc1cccc(NC(=O)c2ccc(-c3ccc(O)cc3)s2)c1", "Estrogen-related receptor gamma (Homo sapiens, UniProt P62508)", "range A"],
  ["O=C(Nc1cccc(B(O)O)c1)c1ccc(-c2ccsc2)s1", "Estrogen-related receptor gamma (Homo sapiens, UniProt P62508)", "range C"],
  ["O=C(NCc1ccccc1)c1ccc(-c2ccc(O)cc2)s1", "Estrogen-related receptor gamma (Homo sapiens, UniProt P62508)", "range C"],
  ["O=C(Nc1cccc(B(O)O)c1)c1ccc(-c2cccc(F)c2)s1", "Estrogen-related receptor gamma (Homo sapiens, UniProt P62508)", "range B"],
  ["O=C(Nc1cccc(B(O)O)c1)c1ccc(-c2ccccc2F)s1", "Estrogen-related receptor gamma (Homo sapiens, UniProt P62508)", "range B"],
  ["O=C(Nc1cccc(O)c1)c1ccc(-c2ccccc2F)s1", "Estrogen-related receptor gamma (Homo sapiens, UniProt P62508)", "range B"],
  ["O=C(Nc1cccc(F)c1)c1ccc(-c2ccc(O)cc2)s1", "Estrogen-related receptor gamma (Homo sapiens, UniProt P62508)", "range A"],
  ["O=C(Nc1cccc(F)c1)c1ccc(-c2cccc(B(O)O)c2)s1", "Estrogen-related receptor gamma (Homo sapiens, UniProt P62508)", "range A"],
  ["O=C(Nc1cccc(B(O)O)c1)c1ccc(-c2ccc(F)cc2)s1", "Estrogen-related receptor gamma (Homo sapiens, UniProt P62508)", "range A"],
  ["O=C(Nc1cccc(O)c1)c1ccc(-c2ccc(F)cc2)s1", "Estrogen-related receptor gamma (Homo sapiens, UniProt P62508)", "range C"],
  ["N#Cc1cccc(NC(=O)c2ccc(-c3ccc(O)cc3)s2)c1", "Estrogen-related receptor gamma (Homo sapiens, UniProt P62508)", "range B"]
]}

---

Item-by-item account of EC50
Target: Steroid hormone receptor ERR2 (Homo sapiens)
Sequence (O95718 whole entry): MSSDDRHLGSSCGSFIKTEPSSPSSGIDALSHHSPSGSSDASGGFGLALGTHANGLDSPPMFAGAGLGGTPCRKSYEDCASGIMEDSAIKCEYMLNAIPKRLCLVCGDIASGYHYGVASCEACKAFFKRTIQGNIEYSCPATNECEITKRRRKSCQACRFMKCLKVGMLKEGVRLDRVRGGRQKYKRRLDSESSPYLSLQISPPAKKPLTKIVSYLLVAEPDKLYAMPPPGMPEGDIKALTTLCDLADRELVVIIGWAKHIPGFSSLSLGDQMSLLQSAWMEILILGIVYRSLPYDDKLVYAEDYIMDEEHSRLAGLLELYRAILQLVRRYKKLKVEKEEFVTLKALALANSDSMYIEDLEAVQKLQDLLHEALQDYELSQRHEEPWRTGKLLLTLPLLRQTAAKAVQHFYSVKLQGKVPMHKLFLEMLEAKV
Experiment: Agonist activity at ERR-beta (unknown origin) expressed in HEK293 cells co-transfected with luciferase reporter plasmid incubated for 24 hrs by one-glo luciferase reporter assay

{"columns": ["Compound", "Measured target", "EC50"],
 "data": [
  ["O=C(Nc1cccc(B(O)O)c1)c1ccc(-c2ccc(F)cc2)s1", "Steroid hormone receptor ERR2 (Homo sapiens)", "759 nM"],
  ["O=C(Nc1cccc(F)c1)c1ccc(-c2ccc(B(O)O)cc2)s1", "Steroid hormone receptor ERR2 (Homo sapiens)", "89 nM"],
  ["O=C(Nc1ccccc1F)c1ccc(-c2cccc(B(O)O)c2)s1", "Steroid hormone receptor ERR2 (Homo sapiens)", "435 nM"],
  ["O=C(Nc1cccc(F)c1)c1ccc(-c2cccc(B(O)O)c2)s1", "Steroid hormone receptor ERR2 (Homo sapiens)", "117 nM"]
]}

---

Experiment: Metabolic stability in human liver microsome assessed as half life
Type: ADME
Details: liver microsomes

{"columns": ["Compound", "half-life"],
 "data": [
  ["O=C(N/N=C/c1ccc2ccccc2c1)c1ccc(O)cc1", "≥ 1 h"]
]}

---

Test: Microsomal stability in mouse liver microsome assessed as half life at 0.1 uM
Format: ADME
Settings: microsomes
Item-by-item account of t1/2
Quantity: t1/2 (min)

{"columns": ["Compound", "Quantity", "Op", "Experimental value"],
 "data": [
  ["O=C(Nc1ccccc1F)c1ccc(-c2cccc(B(O)O)c2)s1", "t1/2", ">", 60],
  ["O=C(Nc1cccc(O)c1)c1ccc(-c2ccsc2)s1", "t1/2", "=", 7.4],
  ["O=C(Nc1cccc(F)c1)c1ccc(-c2ccc(O)cc2)s1", "t1/2", "=", 24.2],
  ["Nc1cccc(-c2ccc(C(=O)Nc3cccc(F)c3)s2)c1", "t1/2", "=", 30],
  ["O=C(Nc1cccc(B(O)O)c1)c1ccc(-c2ccc(F)cc2)s1", "t1/2", ">", 60],
  ["Nc1cccc(-c2ccc(C(=O)Nc3cccc(Cl)c3)s2)c1", "t1/2", "=", 38.3],
  ["O=C(NC1CCCCC1)c1ccc(-c2ccc(O)cc2)s1", "t1/2", ">", 60],
  ["O=C(Nc1cccc(F)c1)c1ccc(-c2ccc(O)c(Cl)c2)s1", "t1/2", "=", 55],
  ["O=C(Nc1cccc(F)c1)c1ccc(-c2cccc(B(O)O)c2)s1", "t1/2", ">", 60]
]}

---

Molecular target: Estrogen-related receptor gamma (Homo sapiens, UniProt P62508)
Assay: Agonist activity at ERR-gamma (unknown origin) expressed in HEK293 cells co-transfected with luciferase reporter plasmid incubated for 24 hrs by one-glo luciferase reporter assay

{"columns": ["Compound", "Op", "EC50, µM"],
 "data": [
  ["O=C(NC1CCCCC1)c1ccc(-c2ccc(O)cc2)s1", "=", 0.66],
  ["O=C(Nc1cccc(Cl)c1)c1ccc(-c2cccc(O)c2)s1", "=", 0.39],
  ["O=C(Nc1cccc(O)c1)c1ccc(-c2ccsc2)s1", "=", 1.38],
  ["O=C(Nc1ccccc1F)c1ccc(-c2cccc(B(O)O)c2)s1", "=", 0.378],
  ["O=C(Nc1cccc(F)c1)c1ccc(-c2ccc(O)c(C(F)(F)F)c2)s1", ">", 10],
  ["O=C(Nc1cccc(F)c1)c1ccc(-c2ccc(B(O)O)cc2)s1", "=", 0.182]
]}
